- assayTarget: HCV cap-dependent translation
- method: In vitro translation assay, FF-HCV-Ren construct, cap-dependent (FF luciferase)
- Assay type: biochemical, rabbit reticulocyte lysates
reportedMetric: IC50

1) Cc1ccc(-c2c(C(=O)/C=C/c3nc4ccccc4[nH]3)c(=O)[nH]c3ccc(Cl)cc23)cc1 [Compound 4] | 2 to 10 µM
2) O=C(/C=C/c1ccccc1)c1c(-c2ccccc2)c2cc([N+](=O)[O-])ccc2[nH]c1=O [Compound 16] | 10 to 20 µM
3) Cc1ccnc(-c2c(C(=O)/C=C/c3cncc(F)c3)c(=O)[nH]c3ccc(Cl)cc23)c1 [Compound 93] | > 20 µM
4) Cc1cncc(/C=C/C(=O)c2c(-c3ccccc3)c3cc(Cl)ccc3[nH]c2=O)c1 [Compound 74] | 2 to 10 µM
5) O=C(/C=C/c1cncc(F)c1)c1c(-c2ccc(OC(F)(F)F)cc2)c2cc(Cl)ccc2[nH]c1=O [Compound 87] | 2 to 10 µM
6) CN(C)c1ccc(-c2c(C(=O)/C=C/c3ccccn3)c(=O)[nH]c3ccc(Cl)cc23)cc1 [Compound 108] | 10 to 20 µM
7) O=C(/C=C/c1nc2ccccc2[nH]1)c1c(-c2ccccc2)c2cccnc2[nH]c1=O [Compound 25] | 10 to 20 µM
8) O=C(/C=C/c1nc2ccccc2[nH]1)c1c(-c2cccs2)c2cc(Cl)ccc2[nH]c1=O [Compound 9] | 10 to 20 µM
